Target: T1, TRIM24 PHD-Bromo C840W (human, UniProt O15164 824-1006, C840W)
T1 sequence: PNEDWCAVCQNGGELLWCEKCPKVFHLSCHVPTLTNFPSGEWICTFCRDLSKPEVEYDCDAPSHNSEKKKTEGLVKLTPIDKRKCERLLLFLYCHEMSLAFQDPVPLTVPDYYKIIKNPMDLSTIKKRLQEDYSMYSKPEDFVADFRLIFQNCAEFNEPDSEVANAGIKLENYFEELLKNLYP
Experiment: ITC
quantity measured: Kd

For record ARTKQTARKSTGGKA [H3(1–15)K4 peptide] the listed Kd is > 400 µM
